Exercise: state measured self-cleavage kobs at 2500 uM GlcN6P for each of the variants provided.
B1: glmS ribozyme (parent)
chain: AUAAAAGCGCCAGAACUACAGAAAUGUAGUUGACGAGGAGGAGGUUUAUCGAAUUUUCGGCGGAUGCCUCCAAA

# Variants of: B1
# measurement.notes: self-cleavage kobs at 2500 uM GlcN6P; higher = faster cleavage; RNA array
# condition.notes: with glucosamine-6-phosphate
This sample holds only a part of the variants without activity.
One number for each entry, in s⁻¹.

Guide cases for self-cleavage kobs at 2500 uM GlcN6P, answers given:
>  <mutation.notation>
G44C U56A

>  <endpoint.value>
3.9e-05

$$$$
>  <mutation.notation>
A15U C16U C58G C70U

>  <endpoint.value>
7.87e-05

$$$$
>  <mutation.notation>
C16G U45C

>  <endpoint.value>
0.000367

$$$$
>  <mutation.notation>
C16U A39G G40A A42G G43A U45G

>  <endpoint.value>
0.0072

$$$$
>  <mutation.notation>
A12U A42G C70G

>  <endpoint.value>
0.00109

$$$$

Quick batch: self-cleavage kobs at 2500 uM GlcN6P for everything below.
1. A6C U55G
2. U69C C70U
3. G29A U30A A53G U65G
4. G9U C50A G51U C68G
5. G13C G66A
6. U45C U56G

**Result**
1: 4.01e-05; 2: 0.000524; 3: 6.03e-05; 4: 0.00198; 5: 4.1e-05; 6: 0.000677

Quick batch: self-cleavage kobs at 2500 uM GlcN6P for everything below.
1. G32U C58U
2. G44C A53U U54G
3. G13A C50G C61G
4. C16A G29U C68U C71U
5. A52C A53G U57G C70G
6. G13U C16A
7. U30C U54C

**Result**
[0.000245, "7.38e-05", 0.000114, "6.71e-05", "5.76e-05", 0.0001, "9.4e-05"]

Quick batch: self-cleavage kobs at 2500 uM GlcN6P for everything below.
1. C67A C68U C70U
2. A15G C50G C70U
3. G62A U69G
4. U46A C70U

**Result**
["2.78e-05", 0.00023, "3.47e-05", 0.00206]
